Please respond with reported activity change, negative = inhibition for every item in the list.
# SYSTEM_NAME: Guanidinoacetate N-methyltransferase (Homo sapiens) (UniProt Q14353)
# PROTOCOL_SUMMARY: Confirmatory Screen for Target Class Profiling of Small Molecule Inhibitors of Methyltransferases (AID 1745852); note: % is set by controls: 0 for no effect and ±100 for the full control effect
# CONDITIONS_USED: MTase-Glo luminescence, SAH detection, recombinant enzyme; at 57.3 µM (top of the series)
Numbers only, in %.

Working through the 5 molecules below one at a time, give activity change, negative = inhibition for each.
1. CCN(CC)C(=S)SSC(=S)N(CC)CC
2. Oc1ccc2ccccc2c1SSc1c(O)ccc2ccccc12
3. Clc1ccc(C(Cn2ccnc2)OCc2c(Cl)cccc2Cl)c(Cl)c1 (stereo unspecified)
4. Cc1ccc(Nc2nccc(N(C)c3ccc4c(C)n(C)nc4c3)n2)cc1S(N)(=O)=O
5. O=c1ccc2ccc(O)c(O)c2o1

Result:
1. 4.64
2. -0.328
3. -4.74
4. 0
5. 2.41

Request: Can you look up the measured activity change, negative = inhibition of CCN(CC)CCOc1ccc(Nc2ncc3cc(-c4c(Cl)cccc4Cl)c(=O)n(C)c3n2)cc1 for me?
Result: 1.71
